# study_target: Human Bcl-2 protein (isoform 2 construct), N-terminal 6xHis tagged recombinant protein (human)
# protocol_notes: fluorescence polarisation; competition: Mcl-1 (20 nM) or Bcl-2 (40 nM) pre-incubated with FAM-Bid (2 nM and 2.5 nM), tested BH3 peptide added, 2-3 h; 100 mM potassium phosphate, pH 7.5, 100 ug/ml bovine gamma globulin, 0.02% sodium azide; Ki calculated from IC50
property_name: Ki (nM)
Please state the figure in nM; there is no need to write the unit.

Query: Ki; subject: NLWAAQRYGRELRRMSDEFVDSFKKG [Bad BH3 peptide (residues 103-128)]
7.1

// provenance: paper PMC3717276
